System: Thymocyte
Experiment description: Immunosuppressive activity in thymocytes by thymocyte proliferation assay
Assay type: functional, cell-based
Endpoint label: pIC50
The scale used: pIC50 is minus the common logarithm of the concentration in molar units.

C=C1CC[C@H]2[C@]3(C)C[C@H](C=C(C)C)O[C@H]3CC[C@]2(C)[C@@H]1Cc1c(O)c(C)c(C)oc1=O :: 7.00

From here, focus on the item given below.
Specify measured pIC50 for C=C1CC[C@H]2[C@]3(C)C[C@@H](C=C(C)C)O[C@H]3CC[C@]2(C)[C@@H]1Cc1c(O)c(C)c(C)oc1=O . 7.00

* * *

pIC50 for assorted compounds
Test system: Lymphocyte
Experiment description: Immunosuppressive activity in lymphocytes by mixed lymphocyte reaction assay
Format: functional, cell-based
The scale used: pIC50 is minus the common logarithm of the concentration in molar units.

C=C1CC[C@H]2[C@]3(C)C[C@@H](C=C(C)C)O[C@H]3CC[C@]2(C)[C@@H]1Cc1c(O)c(C)c(C)oc1=O [SUBGLUTINOL A] :: 7.00

From here, focus on the item given below.
Specify measured pIC50 for C=C1CC[C@H]2[C@]3(C)C[C@H](C=C(C)C)O[C@H]3CC[C@]2(C)[C@@H]1Cc1c(O)c(C)c(C)oc1=O [SUBGLUTINOL B] . 7.00
